biological target: Jack Bean Urease (Canavalia ensiformis, UniProt P07374); assay: indophenol urease inhibition assay (ammonia release, […] nm); type: biochemical
Sequence (P07374 whole entry): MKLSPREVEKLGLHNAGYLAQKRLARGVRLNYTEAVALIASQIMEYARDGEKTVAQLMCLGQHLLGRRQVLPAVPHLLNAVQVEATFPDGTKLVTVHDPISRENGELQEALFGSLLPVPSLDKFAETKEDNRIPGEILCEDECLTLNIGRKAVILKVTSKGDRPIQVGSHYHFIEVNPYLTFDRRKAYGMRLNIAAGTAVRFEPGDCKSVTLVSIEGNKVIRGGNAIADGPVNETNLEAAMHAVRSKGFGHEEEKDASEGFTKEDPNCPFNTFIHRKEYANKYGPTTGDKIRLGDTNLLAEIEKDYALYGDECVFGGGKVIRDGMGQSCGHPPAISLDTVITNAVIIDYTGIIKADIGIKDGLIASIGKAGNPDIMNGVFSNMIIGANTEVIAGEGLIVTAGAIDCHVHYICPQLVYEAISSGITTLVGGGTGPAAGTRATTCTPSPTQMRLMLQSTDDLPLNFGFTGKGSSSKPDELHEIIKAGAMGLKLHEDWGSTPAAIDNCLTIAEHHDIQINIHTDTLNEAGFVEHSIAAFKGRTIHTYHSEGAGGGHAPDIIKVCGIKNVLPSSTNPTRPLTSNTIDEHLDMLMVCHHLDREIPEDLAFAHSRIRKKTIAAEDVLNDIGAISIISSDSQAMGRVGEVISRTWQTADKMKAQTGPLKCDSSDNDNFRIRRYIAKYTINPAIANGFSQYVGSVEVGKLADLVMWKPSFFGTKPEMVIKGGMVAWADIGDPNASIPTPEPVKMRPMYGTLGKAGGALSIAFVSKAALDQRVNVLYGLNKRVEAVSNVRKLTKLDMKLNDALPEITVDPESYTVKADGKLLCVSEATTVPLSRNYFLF
property: IC50 (µM)
The reply should contain only the number, in µM.

Asked: Fill in the blank: the reported IC50 of O=C1C2=C(Nc3nccnc3C2c2ccc(Cl)cc2)c2ccccc21 (stereo not shown) [compound 5] is ____.
Given back: 4.12

----------
Biological target: Jack Bean Urease (Canavalia ensiformis)
Experiment: biochemical
Set-up: Jack bean urease inhibition, ammonia release by indophenol method, absorbance at 625 nm
Source text: The enzyme responsible for catalyzing urea, known as urease, helps for the conversion of urea into carbon dioxide (CO2) through hydrolysis. To monitor the production of ammonia (NH3) and inhibit urease activity, we employed the indophenol method.[42] […]
Below: a set of entries, each annotated with reported IC50.
Returns: string containing the numeric result and its unit.

As a guide, the following entries are already answered.
O=C1C2=C(Nc3nccnc3C2c2ccc([N+](=O)[O-])cc2)c2ccccc21 (stereo not shown) [compound 6]
4.77 µM
O=Cc1ccc(C2C3=C(Nc4nccnc42)c2ccccc2C3=O)cc1 (stereo not shown) [compound 4]
6.79 µM
NC(N)=S [thiourea]
1.94 µM

Now turn to the next compound.
Asked: Fill in the blank: the reported IC50 of COc1ccc(C2C3=C(Nc4nccnc42)c2ccccc2C3=O)cc1 (stereo not shown) [compound 7] is ____.
Given back: 11.9 µM

Hey, just so you know, these numbers are from paper PMC10619479.
